- target: human TLR7 (Homo sapiens)
- Sequence (Q9NYK1 27-1049): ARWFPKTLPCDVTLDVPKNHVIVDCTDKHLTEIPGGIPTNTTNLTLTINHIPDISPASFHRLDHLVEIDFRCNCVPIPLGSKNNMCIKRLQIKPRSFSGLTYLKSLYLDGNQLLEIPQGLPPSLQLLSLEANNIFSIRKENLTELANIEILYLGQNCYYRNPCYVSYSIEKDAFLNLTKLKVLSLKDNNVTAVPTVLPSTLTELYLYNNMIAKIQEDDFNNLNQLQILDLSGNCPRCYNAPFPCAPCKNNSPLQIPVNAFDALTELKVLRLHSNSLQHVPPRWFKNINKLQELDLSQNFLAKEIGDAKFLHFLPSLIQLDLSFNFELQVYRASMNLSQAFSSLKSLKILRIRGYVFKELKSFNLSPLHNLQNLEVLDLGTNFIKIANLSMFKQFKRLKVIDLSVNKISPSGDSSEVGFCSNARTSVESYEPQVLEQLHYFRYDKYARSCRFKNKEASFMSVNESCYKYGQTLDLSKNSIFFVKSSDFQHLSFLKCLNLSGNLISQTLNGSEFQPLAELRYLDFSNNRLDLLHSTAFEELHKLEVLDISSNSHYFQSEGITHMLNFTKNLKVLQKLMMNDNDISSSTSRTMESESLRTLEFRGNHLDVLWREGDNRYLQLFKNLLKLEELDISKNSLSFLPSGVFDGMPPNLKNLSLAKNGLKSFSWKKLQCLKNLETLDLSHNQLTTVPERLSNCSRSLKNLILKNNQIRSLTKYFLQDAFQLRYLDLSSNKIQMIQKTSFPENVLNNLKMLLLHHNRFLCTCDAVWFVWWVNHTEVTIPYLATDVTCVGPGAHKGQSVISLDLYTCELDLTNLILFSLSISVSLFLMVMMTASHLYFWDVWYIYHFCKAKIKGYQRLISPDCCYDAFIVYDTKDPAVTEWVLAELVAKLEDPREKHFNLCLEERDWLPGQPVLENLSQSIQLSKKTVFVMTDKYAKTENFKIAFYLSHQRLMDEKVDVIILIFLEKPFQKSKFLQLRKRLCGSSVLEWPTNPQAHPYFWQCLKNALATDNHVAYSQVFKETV
- run description: TLR7 inhibition reporter assay (HEK-Blue SEAP)
- particulars: HEK-Blue cells overexpressing human TLR7, stimulated with gardiquimod 7.5 μM, 22 hour incubation
measured parameter: IC50 (nM)
Value expressed in nM; do not type the unit.

molecule | IC50 [nM]
CCc1c(-c2ccnc(C)c2)[nH]c2ccc(OC3CCN(C(C)C)C3)cc12 (stereo not shown) | 954

# IC50 lookup, item CNC(=O)CN1CCC(COc2ccc3[nH]c(-c4cc(C)c5ncnn5c4)c(C(C)C)c3c2)CC1
1.4

Which measured IC50 value corresponds to COc1ccc(-c2[nH]c3ccc(OCC(=O)N[C@@H]4CCCNC4)cc3c2C(C)C)cc1OC ?
142

Requested field: IC50. Item: Cc1cc(-c2[nH]c3ccc(OCC(=O)N4CCC5(CCNCC5)C4)cc3c2C(C)C)ccn1
917

Data provenance: patent US12030878B2
